- assayed system: DYRK4 (human)
- assay overview: radiometric filter-binding kinase assay, Kinase HotSpot
- reported conditions: compound 0.5 µM; ATP 10 µM
assay metric: residual activity (%)
Output spec: scalar in %, unitless text.

O=C1Nc2ccccc2/C1=C1/Nc2ccccc2/C1=N\OCCC(O)CO (configuration not stated) : 100
O=C1Nc2ccccc2/C1=C1\Nc2ccccc2\C1=N/O : 96.8
CN(C)C[C@H]1CCn2c(c(C3=C(c4cn(C)c5ccccc45)C(=O)NC3=O)c3ccccc32)C1 : 98.9
Cn1nc2c3c(cccc31)C(=O)c1ccccc1-2 : 91.2
Cn1cnc2cc3c(Nc4cccc(Br)c4)ncnc3cc21 : 97.5
COc1ccc(CNC(=O)Nc2ncc([N+](=O)[O-])s2)cc1 : 97.7

Let us move to another entry and its residual activity.
Request: Entry Nc1nnc2[nH]c3ccccc3nc1-2 : reported residual activity = ?
Result: 89.2

* * *

- assayed system: CDK1 CCNA2 (human) (UniProt P06493+P20248)
- Sequence (P06493 whole entry, looked up): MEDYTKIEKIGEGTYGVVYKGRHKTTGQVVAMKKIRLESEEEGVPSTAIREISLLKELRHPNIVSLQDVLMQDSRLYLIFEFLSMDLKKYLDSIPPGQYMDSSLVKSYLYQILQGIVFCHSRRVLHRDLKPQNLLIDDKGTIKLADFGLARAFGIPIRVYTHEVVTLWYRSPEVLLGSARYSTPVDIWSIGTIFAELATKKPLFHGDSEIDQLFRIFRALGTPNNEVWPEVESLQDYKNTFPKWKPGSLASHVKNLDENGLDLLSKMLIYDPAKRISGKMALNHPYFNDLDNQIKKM
- Sequence (P20248 whole entry, looked up): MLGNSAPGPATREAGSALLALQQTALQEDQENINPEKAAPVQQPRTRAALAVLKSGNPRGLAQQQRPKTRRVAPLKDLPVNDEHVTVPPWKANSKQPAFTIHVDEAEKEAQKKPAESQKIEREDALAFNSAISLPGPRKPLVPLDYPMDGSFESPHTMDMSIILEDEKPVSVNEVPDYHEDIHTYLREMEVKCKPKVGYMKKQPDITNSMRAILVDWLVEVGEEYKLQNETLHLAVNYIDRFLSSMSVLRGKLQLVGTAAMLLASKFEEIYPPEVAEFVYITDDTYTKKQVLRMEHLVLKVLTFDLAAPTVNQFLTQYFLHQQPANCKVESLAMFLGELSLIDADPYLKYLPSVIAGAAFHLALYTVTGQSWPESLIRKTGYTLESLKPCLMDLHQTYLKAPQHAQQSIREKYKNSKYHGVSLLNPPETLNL
- assay overview: radiometric filter-binding kinase assay, Kinase HotSpot
- reported conditions: compound 0.5 µM; ATP 10 µM
Collected residual activity values appear next to each entry.

A selection of reference data follows.
O=C(O)/C=C/c1cc(Br)c(Br)c(Br)c1Br : 88.6%
O=C1NC(=O)C(c2cn(CCCO)c3ncccc23)=C1c1cnccn1 : 91.8%
O=C1Nc2ccccc2/C1=C1\Nc2ccccc2\C1=N/O : 88.4%
Oc1ccc(Nc2nc(-c3ccc(Cl)cc3)cs2)cc1 : 91.2%

Let us move to another entry and its residual activity.
Request: Entry COc1cc2ncnc(N3CCN(C(=O)Nc4ccc(Oc5ccccc5)cc4)CC3)c2cc1OC : reported residual activity = ?
Result: 92.3%

* * *

Collected residual activity values appear next to each entry.
- assayed system: UniProt:P53778
- Sequence (P53778 whole entry, looked up): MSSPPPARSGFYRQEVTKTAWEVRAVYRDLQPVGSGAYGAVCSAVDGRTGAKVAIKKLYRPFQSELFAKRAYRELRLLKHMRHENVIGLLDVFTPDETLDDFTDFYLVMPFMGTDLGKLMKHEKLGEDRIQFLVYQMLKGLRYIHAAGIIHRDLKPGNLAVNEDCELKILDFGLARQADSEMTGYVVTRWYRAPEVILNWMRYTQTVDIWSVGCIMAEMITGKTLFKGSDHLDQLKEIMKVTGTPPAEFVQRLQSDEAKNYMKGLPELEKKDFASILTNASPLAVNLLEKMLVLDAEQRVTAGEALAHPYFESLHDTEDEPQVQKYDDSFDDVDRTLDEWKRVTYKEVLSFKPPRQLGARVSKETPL
- assay overview: radiometric filter-binding kinase assay, Kinase HotSpot
- reported conditions: compound 0.5 µM; ATP 10 µM
Output spec: scalar in %, unitless text.

A selection of reference data follows.
O=C(O)/C=C/c1cc(Br)c(Br)c(Br)c1Br : 103
O=C1NC(=O)C(c2cn(CCCO)c3ncccc23)=C1c1cnccn1 : 86.8
Cn1cnc2cc3c(Nc4cccc(Br)c4)ncnc3cc21 : 92

Request: Field: residual activity (UniProt:P53778). Entry: O=C1NC(=O)C(c2c[nH]c3ccccc23)=C1c1c[nH]c2ccccc12
Result: 93

Request: // same read-out, input: O=C1Nc2ccccc2/C1=C1/Nc2ccccc2/C1=N\OCCC(O)CO (stereo unspecified)
Result: 89.9

Request: // same read-out, input: Nc1nnc2[nH]c3ccccc3nc1-2
Result: 100

Request: // same read-out, input: CCN(CC)CCCCN1c2ccccc2Oc2ccc(Cl)cc21
Result: 97.4

Request: // same read-out, input: O=C(Nc1cccc(Nc2cc(Nc3cccc(C(F)(F)F)c3)ncn2)c1)C1CC1
Result: 89.2

Request: // same read-out, input: COc1ccc(OC)c2c(=S)c3ccccc3[nH]c12
Result: 98.1

Request: // same read-out, input: Cn1sc(=O)n(Cc2ccccc2)c1=O
Result: 102

Request: // same read-out, input: O=C(CCCc1ccc(-c2ccccc2F)cc1)Nc1ccc(O)cc1
Result: 104

* * *

Collected residual activity values appear next to each entry.
- assayed system: ERBB2 (human)
- assay overview: radiometric filter-binding kinase assay, Kinase HotSpot
- reported conditions: compound 0.5 µM; ATP 10 µM
Output spec: scalar in %, unitless text.

Nc1nccc(-c2c(-c3ccc(F)cc3)ncn2C2CCNCC2)n1 : 93.7
O=C1Nc2ccccc2/C1=C1/Nc2ccccc2/C1=N\OCCC(O)CO (stereo not drawn) : 95.3

Request: Entry O=C(CCCc1ccc(-c2ccccc2F)cc1)Nc1ccc(O)cc1 : reported residual activity = ?
Result: 101

* * *

- assayed system: EPHA8 (human)
- assay overview: radiometric filter-binding kinase assay, Kinase HotSpot
- reported conditions: compound 0.5 µM; ATP 10 µM
assay metric: residual activity (%)
Output spec: scalar in %, unitless text.

A selection of reference data follows.
Nc1nccc(-c2c(-c3ccc(F)cc3)ncn2C2CCNCC2)n1 : 101
O=C1Nc2ccccc2/C1=C1\Nc2ccccc2\C1=N/O : 91.1
COc1ccc(OC)c2c(=S)c3ccccc3[nH]c12 : 93.8
CN(C)C[C@H]1CCn2c(c(C3=C(c4cn(C)c5ccccc45)C(=O)NC3=O)c3ccccc32)C1 : 102
CN([C@@H](Cc1ccc(OS(=O)(=O)c2cccc3cnccc23)cc1)C(=O)N1CCN(c2ccccc2)CC1)S(=O)(=O)c1cccc2cnccc12 : 99.6

Let us move to another entry and its residual activity.
Request: Entry CCn1cnc2c(Nc3cccc(Cl)c3)nc(N[C@@H]3CCCC[C@@H]3N)nc21 : reported residual activity = ?
Result: 93

* * *

- assayed system: MAPK8 (human) (UniProt P45983)
- Sequence (P45983 whole entry, looked up): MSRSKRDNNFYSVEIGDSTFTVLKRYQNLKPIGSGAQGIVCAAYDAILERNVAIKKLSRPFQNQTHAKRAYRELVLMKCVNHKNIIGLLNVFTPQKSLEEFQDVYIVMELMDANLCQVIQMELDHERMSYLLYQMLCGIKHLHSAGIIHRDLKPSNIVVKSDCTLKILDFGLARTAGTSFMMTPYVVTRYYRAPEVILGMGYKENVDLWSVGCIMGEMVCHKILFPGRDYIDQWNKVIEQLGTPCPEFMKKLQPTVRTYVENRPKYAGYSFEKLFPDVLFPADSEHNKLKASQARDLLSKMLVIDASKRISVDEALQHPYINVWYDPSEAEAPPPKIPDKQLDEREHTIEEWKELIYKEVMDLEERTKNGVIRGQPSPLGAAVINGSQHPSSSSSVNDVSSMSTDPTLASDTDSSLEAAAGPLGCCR
- assay overview: radiometric filter-binding kinase assay, Kinase HotSpot
- reported conditions: compound 0.5 µM; ATP 10 µM
Collected residual activity values appear next to each entry.
Output spec: scalar in %, unitless text.

A selection of reference data follows.
COc1ccc(CNC(=O)Nc2ncc([N+](=O)[O-])s2)cc1 : 104
CN([C@@H](Cc1ccc(OS(=O)(=O)c2cccc3cnccc23)cc1)C(=O)N1CCN(c2ccccc2)CC1)S(=O)(=O)c1cccc2cnccc12 : 94.6

Let us move to another entry and its residual activity.
Request: Entry O=C(O)/C=C/c1cc(Br)c(Br)c(Br)c1Br : reported residual activity = ?
Result: 86.8

* * *

- assayed system: NEK1 (human)
- assay overview: radiometric filter-binding kinase assay, Kinase HotSpot
- reported conditions: compound 0.5 µM; ATP 10 µM
assay metric: residual activity (%)
Output spec: scalar in %, unitless text.

Request: Field: residual activity (NEK1 (human)). Entry: O=C1NC(=O)C(c2cn(CCCO)c3ncccc23)=C1c1cnccn1
Result: 91.9

Request: // same read-out, input: CC(C)c1nn(-c2c(Cl)cccc2Cl)c2nc(Cc3ccc(OCCO)cc3)nc(O)c12
Result: 90.9

Request: // same read-out, input: Nc1nnc2[nH]c3ccccc3nc1-2
Result: 91.7
